assay: binders of probe aHhip on microarray, primary screen, stem cell growth factor project, biochemical, small-molecule microarray, fluorescence 635/667 (AID 1087); settings: higher = more signal;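 also: score merges spot fluorescence at 667nm with spot signal to noise ratio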
Tag: true if measured composite z-score is not below -0.1, false if it is.

compound="CN1C(=O)C2C=CC(C(O)C3CC=CCC3)N(Nc3ccccc3)C2C1=O (stereo unspecified)" class_label=true
compound=O=C1C[C@@](C(=O)NC2CC2)(c2ccc([N+](=O)[O-])cc2)[C@@H](c2ccc(CO)cc2I)N1CC12CC3CC(CC(C3)C1)C2 class_label=false
compound="O=C1C2C=CC(C(O)c3ccccc3)N(n3cnnc3)C2C(=O)N1Cc1ccccc1 (stereo unspecified)" class_label=false
compound=CN(C)C(=O)[C@@]1(Cc2ccccc2N=[N+]=[N-])N=C(c2ccc(OCCCO)cc2)O[C@H]1c1ccccc1CN=[N+]=[N-] class_label=true
compound="O=C(NCC(O)CO)[C@]1(Cc2ccccc2)N=C(c2ccc(OCCCO)cc2)O[C@@H]1c1ccccc1 (stereo partly specified)" class_label=true

Ask | Could you please find out whether CO[C@H]1O[C@H](CO)[C@@H](OC(=O)Nc2ccccc2)[C@H](OC(=O)Nc2ccc3c(c2)OCO3)[C@@H]1OC(=O)Nc1ccc2c(c1)OCO2 has composite z-score that meets -0.1 or exceeds it?
Reply | false

Ask | Textbook exercise: given the entry Cc1ccccc1C(O)C1C=CC2C(=O)N(c3ccccc3)C(=O)C2N1Nc1ccc(C#N)cc1 (stereo unspecified) , state whether its composite z-score is greater than or equal to -0.1.
Reply | false

Ask | Evaluate COc1cc(CO)cc(I)c1O[C@H]1C=C(C(=O)NCCO)C[C@@H](NCCc2c[nH]c3ccccc23)[C@@H]1O : composite z-score at minimum -0.1?
Reply | false

Ask | Confirm if composite z-score reported for the compound Cc1ccc(S[C@]2(C(=O)NC(C)C)CC(=O)N(C3Cc4ccccc4C3)[C@@H]2c2ccc(CO)cc2)cc1 is -0.1 or above.
Reply | false
